# Protocol Description: E. coli growth modulation, two-sided OD650, primary screen, E. coli filamentation project, strain DRC41, 24 h (AID 1093);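 further: MC1000 strain lacking acrAB efflux and sulA so SOS filamentation is blocked; test concentration not given here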
# Test Parameters: OD650, 24 h, higher = more signal, called active from +8 up or from −8 down
Here the recorded z-score is given for each entry.
Give your answer as a number; write no unit.

Example entries and their recorded answers appear below.
COc1cc2c(cc1OC)CN(C(=O)[C@@H]1[C@H]3C(=O)O[C@H](c4ccccc4)[C@H](c4ccccc4)N3[C@H](c3ccc(O)cc3)[C@@]13C(=O)Nc1ccc(C#CCCO)cc13)CC2 :: -0.385
CC1(C)C(=O)C(c2ccccc2)=C2CN3C(=O)N(CCc4ccccc4)C(=O)C3(Cc3ccc(F)cc3)C=C21 (stereo not drawn) :: -2
C=CCN1C(=O)[C@@]2(O[C@@H](CCO)[C@H]([Si](C)(C)c3ccc(OC)cc3)[C@H]2C)c2cc(N3CCOC3=O)ccc21 :: 0.976
C=C[C@@H](C)[C@H](O)c1ccc(OCCO)cc1 :: -0.0261
O=C1[C@@H]2[C@@H](CC(COc3ccccc3)=C3[C@@H](CCc4ccccc4)OB(O)C[C@@H]32)C(=O)N1Cc1ccccc1 :: -0.874

Which value of z-score has been reported for CCOC(=O)C=Cc1ccccc1O in the records?
0.354

Name the recorded z-score for COCC(=C=CC[C@@H](O)c1cccc(OCCO)c1)CCO .
0.0464

Field request: z-score | item: CCC(CC)C(O)C1C=CC2C(=O)N(c3ccccc3)C(=O)C2N1Nc1ccc([N+](=O)[O-])cc1 (stereo not drawn)
-0.27
